From: PubChem BioAssay AID2060889

Test system: LG0567-F671-PDC complex spheroids viability
Test: Anticancer human tumor LG0567-F671-PDC patient-derived lung adenocarcinoma cell line growth inhibition [RAS]
Conditions: second compound 0.1 µM; first compound 0.0316 µM; active compounds read low
Text: RAS pathway inhibitors in Combinations in Complex Spheroids A high-throughput screen of multi-cell type tumor spheroids was designed to identify active combinations of RAS pathway inhibitors and targeted small molecules. Complex spheroids include a stromal component modeled by human endothelial cells (HUVEC) and fibroblasts modeled by human mesenchymal stem cells (MSCs). […] Compounds. […] If the clinical Cmax for an agent had not been determined, the highest concentration tested was 10 microM. […]
METRIC NAME: viability, T/C (%)
Expressed in %, but write only the number.

viability, T/C reading for O=C(c1ccc(F)c(F)c1Nc1ccc(I)cc1F)N1CC(O)([C@@H]2CCCCN2)C1 + C#Cc1c(F)ccc2cc(O)cc(-c3ncc4c(N5CC6CCC(C5)N6)nc(OCC56CCCN5CC(F)C6)nc4c3F)c12 : 35.4

viability, T/C reading for NC1c2ccccc2OC12CCN(c1cnc3c(N4CCCc5ncccc54)n[nH]c3n1)CC2 (stereo not given) + C#Cc1c(F)ccc2cc(O)cc(-c3ncc4c(N5CC6CCC(C5)N6)nc(OCC56CCCN5CC(F)C6)nc4c3F)c12 : 21

viability, T/C reading for CC(=O)OC12COC1CC(O)C1(C)C(=O)C(O)C3=C(C)C(OC(=O)C(O)C(NC(=O)OC(C)(C)C)c4ccccc4)CC(O)(C(OC(=O)c4ccccc4)C21)C3(C)C (stereo not given) + C#Cc1c(F)ccc2cc(O)cc(-c3ncc4c(N5CC6CCC(C5)N6)nc(OCC56CCCN5CC(F)C6)nc4c3F)c12 : 45.7

viability, T/C reading for CCC(CC)c1cc(NC2CCC(N)C2)n2nccc2n1 (stereo not given) + C=CC(=O)N1CCN(c2nc(OCC3CCCN3C)nc3c(F)c(-c4nc(N)cc(C)c4C(F)(F)F)c(Cl)cc23)C(C)C1 : 11.6

Could you now consider this next compound?
viability, T/C reading for CC(C)NCC(C(=O)N1CCN(c2ncnc3c2C(C)CC3O)CC1)c1ccc(Cl)cc1 (stereo not given) + C=CC(=O)N1CCN(c2nc(OCC3CCCN3C)nc3c(F)c(-c4nc(N)cc(C)c4C(F)(F)F)c(Cl)cc23)C(C)C1 : 12.6

###

Test system: LG0567-F671-PDC complex spheroids viability
Test: Anticancer human tumor LG0567-F671-PDC cell line growth inhibition [RAS];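 further: spheroids exposed to compound for seven days before readout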
Conditions: second compound 1 µM; first compound 0.1 µM; active compounds read low
Note to self: use y only for viability, T/C readings below 20%; a reading exactly at 20% still gets n.

query: Below 20% on viability, T/C? Entry CC1(O)CCCC1n1c(=O)c(C(F)F)cc2cnc(NC3CCN(S(C)(=O)=O)CC3)nc21 (stereo not given) + C#Cc1c(F)ccc2cc(O)cc(-c3ncc4c(N5CC6CCC(C5)N6)nc(OCC56CCCN5CC(F)C6)nc4c3F)c12
result: n

New cases:
query: Below 20% on viability, T/C? Entry CCN1CCN(Cc2ccc(Nc3ncc(F)c(-c4cc(F)c5nc(C)n(C(C)C)c5c4)n3)nc2)CC1 + C#Cc1c(F)ccc2cc(O)cc(-c3ncc4c(N5CC6CCC(C5)N6)nc(OCC56CCCN5CC(F)C6)nc4c3F)c12
result: n

query: Below 20% on viability, T/C? Entry Cc1nc(N2CCC3(CC2)COC(C)C3N)c(CO)nc1Sc1ccnc(N)c1Cl (stereo not given) + C#Cc1c(F)ccc2cc(O)cc(-c3ncc4c(N5CC6CCC(C5)N6)nc(OCC56CCCN5CC(F)C6)nc4c3F)c12
result: y

query: Below 20% on viability, T/C? Entry C=CC(=O)Nc1cc(Nc2nccc(-c3cn(C)c4ccccc34)n2)c(OC)cc1N(C)CCN(C)C + C=CC(=O)N1CCN(c2nc(OCC3CCCN3C)nc3c(F)c(-c4nc(N)cc(C)c4C(F)(F)F)c(Cl)cc23)C(C)C1
result: y

###

System: LG0567-F671-PDC complex spheroids viability
Experiment: Anticancer human tumor LG0567-F671-PDC cell line growth inhibition [RAS]; active means viability on the fitted dose curve at most 10% of control; inactive means the rest;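 further: spheroids exposed to compound for seven days before readout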
Settings: compound 1 µM
Just give me one of these, please: TRUE (active), FALSE (inactive)

# count of solved cases: 8
query: # outcome recorded in this test, key = CC1(O)CCCC1n1c(=O)c(C(F)F)cc2cnc(NC3CCN(S(C)(=O)=O)CC3)nc21 (stereo not drawn)
result: FALSE

query: # outcome recorded in this test, key = CC(=O)OC12COC1CC(O)C1(C)C(=O)C(O)C3=C(C)C(OC(=O)C(O)C(NC(=O)OC(C)(C)C)c4ccccc4)CC(O)(C(OC(=O)c4ccccc4)C21)C3(C)C (stereo not drawn)
result: FALSE

query: # outcome recorded in this test, key = CC(C)NCC(C(=O)N1CCN(c2ncnc3c2C(C)CC3O)CC1)c1ccc(Cl)cc1 (stereo not drawn)
result: FALSE

query: # outcome recorded in this test, key = Nc1ccn(C2OC(CO)C(O)C2(F)F)c(=O)n1 (stereo not drawn)
result: FALSE

query: # outcome recorded in this test, key = CCN1CCN(Cc2ccc(Nc3ncc(F)c(-c4cc(F)c5nc(C)n(C(C)C)c5c4)n3)nc2)CC1
result: FALSE

query: # outcome recorded in this test, key = O=C(c1ccc(F)c(F)c1Nc1ccc(I)cc1F)N1CC(O)([C@@H]2CCCCN2)C1
result: TRUE

query: # outcome recorded in this test, key = NC1c2ccccc2OC12CCN(c1cnc3c(N4CCCc5ncccc54)n[nH]c3n1)CC2 (stereo not drawn)
result: FALSE

query: # outcome recorded in this test, key = C=CC(=O)Nc1cc(Nc2nccc(-c3cn(C)c4ccccc34)n2)c(OC)cc1N(C)CCN(C)C
result: FALSE

New cases:
query: # outcome recorded in this test, key = C=CC(=O)N1CCN(c2nc(OCC3CCCN3C)nc3c(F)c(-c4nc(N)cc(C)c4C(F)(F)F)c(Cl)cc23)C(C)C1 (stereo not drawn)
result: FALSE

query: # outcome recorded in this test, key = C#Cc1c(F)ccc2cc(O)cc(-c3ncc4c(N5CC6CCC(C5)N6)nc(OCC56CCCN5CC(F)C6)nc4c3F)c12 (stereo not drawn)
result: FALSE

###

System: LG0567-F671-PDC complex spheroids viability
Experiment: Anticancer human tumor LG0567-F671-PDC cell line growth inhibition [RAS]; active = viability on the fitted dose curve at most 10% of control; inactive = the rest;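 further: spheroids exposed to compound for seven days before readout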
Settings: second compound 0.03 µM; first compound 3.16 µM
Just give me one of these, please: 1 = active, -1 = inactive

# count of solved cases: 8
query: # outcome recorded in this test, key = C[C@@H](NC(=O)c1ncnc(N)c1Cl)c1ncc(C(=O)Nc2cc(C(F)(F)F)c(Cl)cn2)s1 + CCn1c(-c2cc(N3CCN(C)CC3)cnc2C(C)OC)c2c3cc(ccc31)-c1csc(n1)CC(NC(=O)C1CC1C)C(=O)N1CCCC(N1)C(=O)OCC(C)(C)C2
result: 1

query: # outcome recorded in this test, key = CC(=O)OC12COC1CC(O)C1(C)C(=O)C(O)C3=C(C)C(OC(=O)C(O)C(NC(=O)OC(C)(C)C)c4ccccc4)CC(O)(C(OC(=O)c4ccccc4)C21)C3(C)C (centres undefined) + CCn1c(-c2cccnc2C(C)OC)c2c3cc(ccc31)N1CCOC(CC(NC(=O)C(C(C)C)N(C)C(=O)C3(F)CCN(C(=O)C#CC(C)(C)N(C)C)CC3)C(=O)N3CCCC(N3)C(=O)OCC(C)(C)C2)C1
result: 1

query: # outcome recorded in this test, key = CC(=O)OC12COC1CC(O)C1(C)C(=O)C(O)C3=C(C)C(OC(=O)C(O)C(NC(=O)OC(C)(C)C)c4ccccc4)CC(O)(C(OC(=O)c4ccccc4)C21)C3(C)C (centres undefined) + CCn1c(-c2cc(N3CCN(C)CC3)cnc2C(C)OC)c2c3cc(ccc31)-c1csc(n1)CC(NC(=O)C1CC1C)C(=O)N1CCCC(N1)C(=O)OCC(C)(C)C2
result: 1

query: # outcome recorded in this test, key = CC(Nc1ccc2c(c1)OCCn1cc(N3C(=O)OCC3C(F)F)nc1-2)C(N)=O (centres undefined) + CCn1c(-c2cccnc2C(C)OC)c2c3cc(ccc31)N1CCOC(CC(NC(=O)C(C(C)C)N(C)C(=O)C3(F)CCN(C(=O)C#CC(C)(C)N(C)C)CC3)C(=O)N3CCCC(N3)C(=O)OCC(C)(C)C2)C1
result: 1

query: # outcome recorded in this test, key = Cc1nc(N2CCC3(CC2)COC(C)C3N)c(CO)nc1Sc1ccnc(N)c1Cl (centres undefined) + CCn1c(-c2cc(N3CCN(C)CC3)cnc2C(C)OC)c2c3cc(ccc31)-c1csc(n1)CC(NC(=O)C1CC1C)C(=O)N1CCCC(N1)C(=O)OCC(C)(C)C2
result: 1

query: # outcome recorded in this test, key = CC(C)NCC(C(=O)N1CCN(c2ncnc3c2C(C)CC3O)CC1)c1ccc(Cl)cc1 (centres undefined) + CCn1c(-c2cc(N3CCN(C)CC3)cnc2C(C)OC)c2c3cc(ccc31)-c1csc(n1)CC(NC(=O)C1CC1C)C(=O)N1CCCC(N1)C(=O)OCC(C)(C)C2
result: 1

query: # outcome recorded in this test, key = CC(Nc1ccc2c(c1)OCCn1cc(N3C(=O)OCC3C(F)F)nc1-2)C(N)=O (centres undefined) + CCn1c(-c2cc(N3CCN(C)CC3)cnc2C(C)OC)c2c3cc(ccc31)-c1csc(n1)CC(NC(=O)C1CC1C)C(=O)N1CCCC(N1)C(=O)OCC(C)(C)C2
result: 1

query: # outcome recorded in this test, key = CC1(O)CCCC1n1c(=O)c(C(F)F)cc2cnc(NC3CCN(S(C)(=O)=O)CC3)nc21 (centres undefined) + CCn1c(-c2cc(N3CCN(C)CC3)cnc2C(C)OC)c2c3cc(ccc31)-c1csc(n1)CC(NC(=O)C1CC1C)C(=O)N1CCCC(N1)C(=O)OCC(C)(C)C2
result: 1

New cases:
query: # outcome recorded in this test, key = C[C@@H](NC(=O)c1ncnc(N)c1Cl)c1ncc(C(=O)Nc2cc(C(F)(F)F)c(Cl)cn2)s1 + CCn1c(-c2cccnc2C(C)OC)c2c3cc(ccc31)N1CCOC(CC(NC(=O)C(C(C)C)N(C)C(=O)C3(F)CCN(C(=O)C#CC(C)(C)N(C)C)CC3)C(=O)N3CCCC(N3)C(=O)OCC(C)(C)C2)C1
result: -1

query: # outcome recorded in this test, key = CCC(CC)c1cc(NC2CCC(N)C2)n2nccc2n1 (centres undefined) + CCn1c(-c2cc(N3CCN(C)CC3)cnc2C(C)OC)c2c3cc(ccc31)-c1csc(n1)CC(NC(=O)C1CC1C)C(=O)N1CCCC(N1)C(=O)OCC(C)(C)C2
result: 1

query: # outcome recorded in this test, key = CCC(CC)c1cc(NC2CCC(N)C2)n2nccc2n1 (centres undefined) + CCn1c(-c2cccnc2C(C)OC)c2c3cc(ccc31)N1CCOC(CC(NC(=O)C(C(C)C)N(C)C(=O)C3(F)CCN(C(=O)C#CC(C)(C)N(C)C)CC3)C(=O)N3CCCC(N3)C(=O)OCC(C)(C)C2)C1
result: 1

query: # outcome recorded in this test, key = CC1(O)CCCC1n1c(=O)c(C(F)F)cc2cnc(NC3CCN(S(C)(=O)=O)CC3)nc21 (centres undefined) + CCn1c(-c2cccnc2C(C)OC)c2c3cc(ccc31)N1CCOC(CC(NC(=O)C(C(C)C)N(C)C(=O)C3(F)CCN(C(=O)C#CC(C)(C)N(C)C)CC3)C(=O)N3CCCC(N3)C(=O)OCC(C)(C)C2)C1
result: -1

query: # outcome recorded in this test, key = NC1c2ccccc2OC12CCN(c1cnc3c(N4CCCc5ncccc54)n[nH]c3n1)CC2 (centres undefined) + CCn1c(-c2cc(N3CCN(C)CC3)cnc2C(C)OC)c2c3cc(ccc31)-c1csc(n1)CC(NC(=O)C1CC1C)C(=O)N1CCCC(N1)C(=O)OCC(C)(C)C2
result: 1

query: # outcome recorded in this test, key = CC(C)NCC(C(=O)N1CCN(c2ncnc3c2C(C)CC3O)CC1)c1ccc(Cl)cc1 (centres undefined) + CCn1c(-c2cccnc2C(C)OC)c2c3cc(ccc31)N1CCOC(CC(NC(=O)C(C(C)C)N(C)C(=O)C3(F)CCN(C(=O)C#CC(C)(C)N(C)C)CC3)C(=O)N3CCCC(N3)C(=O)OCC(C)(C)C2)C1
result: 1
